These entries and their values trace back to ChEMBL document CHEMBL2321719.

# PROTOCOL_NOTES: Unbound fraction in rhesus monkey plasma at 1000 ng/g after 5 hrs by equilibrium dialysis method
# Type: ADME, cell-free, Macaca mulatta
Listed here are compounds together with their documented fraction unbound at 5 h, 1000 ng/g.
Returns: the value as a bare number; no unit string appended.

[
  {
    "CHEM_SMILES": "CN1CCC(c2cn(-c3ccc(F)cc3)c3ccc(-c4ncn(C)n4)cc23)CC1",
    "fraction unbound at 5 h, 1000 ng/g": 0.18
  }
]

Now turn to the next compound.
[Q] Need fraction unbound at 5 h, 1000 ng/g of CN1CCC(c2cn(-c3ccc(F)cc3)c3ccc(-c4cncnc4)cc23)CC1 , thanks.
[A] 0.13
